- System: CCRIS mutagenicity, Ames/micronucleus/aberration tests
- methodDescription: CCRIS mutagenicity studies
- cond: Test System: AMES SALMONELLA TYPHIMURIUM; Strain/Indicator: TA100; Metabolic Activation: RAT, LIVER, S-9, AROCLOR 1254; Method: STANDARD PLATE
The source made the active and inactive calls. The rule behind the calls is not given here.
Your response should consist of one outcome taken from yes (1) (active), no (0) (inactive)

Can you look up the reported call for COc1ccccc1/C=C/C=O for me?
no (0)

// same read-out, input: COP(=S)(OC)Oc1ccc(N)c(C)c1
yes (1)

// same read-out, input: C=C(C#N)C(=O)OCC
no (0)

// same read-out, input: COc1cc2c(CCNC(C)=O)c[nH]c2cc1O
no (0)

// same read-out, input: O=c1cc2ccc3cccc4ccc([nH]1)c2c34
yes (1)

// same read-out, input: NC(=O)N/N=C/C(=O)O
no (0)

// same read-out, input: O=c1c(=O)c2cc3ccccc3c3ccc4cccc1c4c23
yes (1)

// same read-out, input: Oc1cc2c3c(cc4cccc5ccc1c3c54)-c1ccccc1-2
no (0)

// same read-out, input: CN(C)P(=O)(N(C)C)N(C)C
no (0)

// same read-out, input: O=C(COc1cc(Cl)c(Cl)cc1Cl)N[C@@H](Cc1c[nH]c2ccccc12)C(=O)O
no (0)

// same read-out, input: Nc1ccccc1SCSc1ccccc1N
yes (1)

// same read-out, input: O=C1c2cccc(S(=O)(=O)O)c2C(=O)c2cccc([N+](=O)[O-])c21
no (0)

// same read-out, input: [Cl][Sn][Cl]
no (0)

// same read-out, input: Clc1c2ccccc2cc2c1ccc1ccccc12
yes (1)

// same read-out, input: C[C@H]1CCC[C@@]2(C)CCCC[C@]12O
no (0)

// same read-out, input: CC1CO1 (configuration not stated)
yes (1)

// same read-out, input: COc1ccc(C(=O)[C@@H]2O[C@@H]2c2ccccc2)cc1
no (0)

// same read-out, input: C[C@]12CC[C@@H](OC(=O)/C=C/c3cccc(N(CCCl)CCCl)c3)C[C@@H]1CC[C@@H]1[C@@H]2CC[C@]2(C)NC(=O)CC[C@@H]12
no (0)

// same read-out, input: C[C@@H]1CC2c3cccc4c3c(cn4C3CCCC3)C[C@H]2N(C)C1 (some centres not stated)
yes (1)

// same read-out, input: C=Cc1ccccn1
no (0)

// same read-out, input: Cl/C=C(\Cl)COCCCl
yes (1)

// same read-out, input: CC/C=C/C=C/C=C/C=C/C=C/OC[C@@H](O)CO
yes (1)

// same read-out, input: CN(C)c1ccc(NS(=O)(=O)c2cccc3cccnc23)cc1
yes (1)

// same read-out, input: O=c1c(Cl)c(Cl)cnn1S(=O)(=O)c1ccc(Cl)cc1
no (0)

// same read-out, input: CCOC(=O)C(Cl)C(C)=O (configuration not stated)
no (0)

// same read-out, input: Clc1cc2c3ccccc3ccc2c2ccccc12
yes (1)

// same read-out, input: Nc1ccc(/C=C/c2ccc(Cl)cc2)cc1
yes (1)
